Values were extracted from paper PMC10397247.

system under test: T1, 4H570-bA
T1 chain: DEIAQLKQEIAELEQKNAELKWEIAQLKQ
assay procedure: two-hybrid library CCNG1;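 note: natural log of median RNA to DNA barcode read ratio; higher means stronger binding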
measurement label: interaction score
I only need the number, thanks.

Supply reported interaction score belonging to this binder: DEIAQLKQEIAELEQKNAELKWEIAQLKQ [4H570-bA] -0.223

Supply reported interaction score belonging to this binder: DEIQQLEQKIQELEQEIQELEWKNQELKQ [4H264-bN] -2.9

Supply reported interaction score belonging to this binder: DKNAQLKQKIAELEQENAELEWEIAQLKQ [4H3858-bA] 1.16
